Target: Upc2 (UniProt Q12151)
Sequence: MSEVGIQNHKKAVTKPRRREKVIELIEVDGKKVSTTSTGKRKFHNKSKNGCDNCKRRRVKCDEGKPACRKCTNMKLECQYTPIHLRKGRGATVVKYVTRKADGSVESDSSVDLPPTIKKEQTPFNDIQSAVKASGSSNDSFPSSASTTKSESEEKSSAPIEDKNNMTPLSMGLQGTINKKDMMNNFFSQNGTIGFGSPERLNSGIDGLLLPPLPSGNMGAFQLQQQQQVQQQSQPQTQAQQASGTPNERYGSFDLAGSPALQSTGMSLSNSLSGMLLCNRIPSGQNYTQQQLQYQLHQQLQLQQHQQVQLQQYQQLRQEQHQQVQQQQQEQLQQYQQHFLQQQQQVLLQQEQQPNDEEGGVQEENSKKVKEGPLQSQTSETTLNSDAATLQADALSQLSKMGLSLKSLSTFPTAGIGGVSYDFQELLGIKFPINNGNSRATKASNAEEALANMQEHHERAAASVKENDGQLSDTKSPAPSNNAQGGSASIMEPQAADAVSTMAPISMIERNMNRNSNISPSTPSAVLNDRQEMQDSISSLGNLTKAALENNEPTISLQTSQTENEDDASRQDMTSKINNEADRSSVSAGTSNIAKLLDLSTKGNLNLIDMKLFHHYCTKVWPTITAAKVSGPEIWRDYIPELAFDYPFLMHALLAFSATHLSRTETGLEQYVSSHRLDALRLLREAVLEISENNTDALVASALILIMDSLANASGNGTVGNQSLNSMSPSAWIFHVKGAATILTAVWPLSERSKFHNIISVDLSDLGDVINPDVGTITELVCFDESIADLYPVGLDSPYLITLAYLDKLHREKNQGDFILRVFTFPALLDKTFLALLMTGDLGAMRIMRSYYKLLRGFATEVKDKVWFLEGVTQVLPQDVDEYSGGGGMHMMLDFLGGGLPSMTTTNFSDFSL
Test: PBM E-score (8-mer binding enrichment) (E-score (-0.5 to 0.5)); higher = stronger / more preferred TF binding
Details: protein concentration: 200 nM; construct: GST-full length
In all, about 33,000 sequences were measured (“E-score (-0.5 to 0.5)”: median about -0.043, highest 2% from about 0.37 on). The entries come from a sample that favours the highest values as a whole.
Below: a set of entries, each annotated with reported PBM E-score.
Quick one: just the number, no unit, thanks!

Record excerpt, results attached:
{"columns": ["macromolecule-sequence", "measured-quantity", "data-value"],
 "data": [
  ["ACACTGTA", "PBM E-score", 0.106],
  ["GCTCGCTA", "PBM E-score", 0.196],
  ["CGTATGGC", "PBM E-score", 0.413],
  ["ATATATAA", "PBM E-score", 0.141]
]}

Return PBM E-score for the following sequence: GCACGTTA
0.182

Return PBM E-score for the following sequence: ATGGTATC
0.15
